pKi: −log10 of the molar value.
Assay read-out pKi; system under study: Carbonic anhydrase 9 (Homo sapiens).
measured_endpoint: pKi

>>> reading("NS(=O)(=O)c1ccc(N2C(=O)c3c(Br)c(Br)c(Br)c(Br)c3C2=O)cc1")
8.04
>>> reading("NS(=O)(=O)c1ccc(CCN2C(=O)c3c(Br)c(Br)c(Br)c(Br)c3C2=O)cc1")
7.80
>>> reading("NS(=O)(=O)c1ccccc1N1C(=O)c2c(Br)c(Br)c(Br)c(Br)c2C1=O")
6.63
>>> reading("NS(=O)(=O)c1ccc(N2C(=O)c3c(Br)c(Br)c(Br)c(Br)c3C2=O)c(Cl)c1")
8.07
